- testSummary: Inhibition of ATX (unknown origin) expressed in human A2058 cells assessed as inhibition of LPC-induced cell invasion after 20 hrs by calcein-AM dye based matrigel-mediated Boyden chamber assay
pIC50: −log10 of the molar value.
propertyName: pIC50

testsmiles=O=S(=O)(c1cc(C(=S)Nc2cc(F)c(F)c(F)c2)c(Cl)cc1Cl)N1CCOCC1 experimentalvalue=6.39
testsmiles=O=C(Nc1cc(F)c(Cl)c(F)c1)c1cc(S(=O)(=O)N2CCOCC2)c(Cl)cc1Cl experimentalvalue=6.13
testsmiles=O=C(Nc1ccc(F)c(F)c1)c1cc(S(=O)(=O)N2CCOCC2)c(Cl)cc1Cl experimentalvalue=6.28
